The measured values listed here are drawn from BindingDB's records for doi:10.1021/acs.jmedchem.1c00124.

experiment: Direct inhibition of CYP2C8 in human liver microsomes using amodiaquine as substrate
Experimental Endpoint: IC50

Name the recorded IC50 for CCC(C)(C)C(=O)O [2,2-DIMETHYLBUTYRATE] .
> 10 mM

* * *

assay: Time-dependent inhibition of CYP2C9 in human liver microsomes using diclofenac as substrate preincubated for 30 mins
pIC50: −log10 of the molar value.
Experimental Endpoint: pIC50

Name the recorded pIC50 for CCC(C)(C)C(=O)O [2,2-DIMETHYLBUTYRATE] .
< 2.00

* * *

experiment: Direct inhibition of CYP1A2 in human liver microsomes using Phenacetin as substrate
pIC50: −log10 of the molar value.
Experimental Endpoint: pIC50

Name the recorded pIC50 for CCC(C)(C)C(=O)O [2,2-DIMETHYLBUTYRATE] .
< 2.00

* * *

assay: Time-dependent inhibition of CYP2C19 in human liver microsomes using S-mephenytoin as substrate preincubated for 30 mins
Experimental Endpoint: IC50

Name the recorded IC50 for CCC(C)(C)C(=O)O [2,2-DIMETHYLBUTYRATE] .
> 10 mM

* * *

assay: Direct inhibition of CYP2C9 in human liver microsomes using diclofenac as substrate
Experimental Endpoint: IC50

Name the recorded IC50 for CCC(C)(C)C(=O)O [2,2-DIMETHYLBUTYRATE] .
> 10 mM

* * *

assay: Direct inhibition of CYP2C19 in human liver microsomes using S-mephenytoin as substrate
Experimental Endpoint: IC50

Name the recorded IC50 for CCC(C)(C)C(=O)O [2,2-DIMETHYLBUTYRATE] .
> 10 mM
